B1: Hairpin Ribozyme (parent)
chain: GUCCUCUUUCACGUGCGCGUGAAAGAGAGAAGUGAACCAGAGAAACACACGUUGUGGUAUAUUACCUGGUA

# Variants of: B1
# RUN DESCRIPTION: self-cleavage, relative activity (ratio to wild type); higher = more cleavage; co-transcriptional
Parameter threshold = 0.1. Response is 1 when self-cleavage meets or exceeds it, else 0.

### Prompt I'd appreciate it if you could say whether U2C G13C has self-cleavage at least equal to 0.1.
### Response 1

### Prompt Does the reported self-cleavage for C12A U70C fall at or above the 0.1 mark?
### Response 1

### Prompt Confirm if self-cleavage reported for the variant A59U G69U is 0.1 or above.
### Response 1

### Prompt Exam item: decide whether the reported self-cleavage for A11C A22C is at least 0.1.
### Response 1

### Prompt Check the entry C18G C38A : does self-cleavage equal or exceed 0.1?
### Response 1

### Prompt // inclusive: self-cleavage at least 0.1? input: G21A G32U
### Response 0

Numbers sourced from the RNAGym collection of RNA variant scans (doi:10.7554/elife.80360).
